Target: CAMKK1 (human) (UniProt Q8N5S9)
Sequence (Q8N5S9 whole entry, looked up): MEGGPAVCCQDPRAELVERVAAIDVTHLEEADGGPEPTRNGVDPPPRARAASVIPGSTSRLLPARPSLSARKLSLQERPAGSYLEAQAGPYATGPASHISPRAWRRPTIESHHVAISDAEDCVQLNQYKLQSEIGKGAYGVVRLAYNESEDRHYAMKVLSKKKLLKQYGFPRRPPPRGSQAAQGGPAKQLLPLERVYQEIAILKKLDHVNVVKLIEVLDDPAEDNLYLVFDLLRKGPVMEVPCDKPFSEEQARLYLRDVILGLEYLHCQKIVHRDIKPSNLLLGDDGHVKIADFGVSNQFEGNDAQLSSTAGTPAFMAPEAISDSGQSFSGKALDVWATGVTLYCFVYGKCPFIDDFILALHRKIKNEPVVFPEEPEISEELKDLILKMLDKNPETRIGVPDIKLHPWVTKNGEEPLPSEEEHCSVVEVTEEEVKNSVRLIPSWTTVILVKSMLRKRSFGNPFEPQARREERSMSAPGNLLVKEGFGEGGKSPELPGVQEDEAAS
Test: radiometric filter-binding kinase assay, Kinase HotSpot
Details: compound 0.5 µM; ATP 10 µM
Readout Kind: residual activity (%)
Numeric answer only, unit % assumed.

O=C1Nc2cc(Br)ccc2/C1=C1/Nc2ccccc2/C1=N\O :: 50.5

Request: Could you tell me which residual activity is on file for Clc1ccc(Nc2nnc(Cc3ccncc3)c3ccccc23)cc1 ?
Result: 97.2

Request: And then Oc1ccc(-c2nc(-c3ccc(F)cc3)c(-c3ccncc3)[nH]2)cc1 , what is it?
Result: 123

Request: Another compound to check: O=C(Nc1ccc(Cl)cc1)c1ccccc1NCc1ccncc1
Result: 98.5

###

Tested on: ARAF (human), P10398 [Y301D/Y302D]
Sequence (P10398 whole entry Y301D/Y302D, looked up): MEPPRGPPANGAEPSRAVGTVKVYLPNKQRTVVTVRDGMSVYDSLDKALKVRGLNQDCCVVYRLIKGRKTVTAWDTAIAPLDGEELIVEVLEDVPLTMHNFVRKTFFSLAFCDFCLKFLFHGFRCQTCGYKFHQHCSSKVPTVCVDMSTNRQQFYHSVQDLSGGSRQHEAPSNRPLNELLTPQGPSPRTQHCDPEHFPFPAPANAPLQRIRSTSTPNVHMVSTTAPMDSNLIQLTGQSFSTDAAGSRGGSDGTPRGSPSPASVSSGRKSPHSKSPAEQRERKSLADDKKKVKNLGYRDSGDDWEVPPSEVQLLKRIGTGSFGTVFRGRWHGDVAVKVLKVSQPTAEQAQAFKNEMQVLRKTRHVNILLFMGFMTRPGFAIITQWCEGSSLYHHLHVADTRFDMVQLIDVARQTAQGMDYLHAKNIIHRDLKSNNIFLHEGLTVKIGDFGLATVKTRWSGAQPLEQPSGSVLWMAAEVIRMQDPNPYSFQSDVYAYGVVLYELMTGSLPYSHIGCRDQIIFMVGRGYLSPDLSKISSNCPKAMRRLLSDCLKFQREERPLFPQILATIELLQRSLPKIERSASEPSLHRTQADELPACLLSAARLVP
Test: radiometric filter-binding kinase assay, Kinase HotSpot
Details: compound 0.5 µM; ATP 10 µM
Examples of compounds with documented residual activity follow.
Could you give me the number in %? Just the number is fine.

Solved cases (2 shown):
Cn1cnc2cc3c(Nc4cccc(Br)c4)ncnc3cc21 :: 119
O=c1[nH]c2ccccc2n1C1CCN(Cc2ccc(-c3nc4cc5[nH]cnc5cc4nc3-c3ccccc3)cc2)CC1 :: 99.2

Please examine the following record next.
Request: What does the data say about its residual activity? Entry: O=C1Nc2ccccc2/C1=C1\Nc2ccccc2\C1=N/O
Result: 100

###

Target: UniProt P49840
Sequence (P49840 whole entry, looked up): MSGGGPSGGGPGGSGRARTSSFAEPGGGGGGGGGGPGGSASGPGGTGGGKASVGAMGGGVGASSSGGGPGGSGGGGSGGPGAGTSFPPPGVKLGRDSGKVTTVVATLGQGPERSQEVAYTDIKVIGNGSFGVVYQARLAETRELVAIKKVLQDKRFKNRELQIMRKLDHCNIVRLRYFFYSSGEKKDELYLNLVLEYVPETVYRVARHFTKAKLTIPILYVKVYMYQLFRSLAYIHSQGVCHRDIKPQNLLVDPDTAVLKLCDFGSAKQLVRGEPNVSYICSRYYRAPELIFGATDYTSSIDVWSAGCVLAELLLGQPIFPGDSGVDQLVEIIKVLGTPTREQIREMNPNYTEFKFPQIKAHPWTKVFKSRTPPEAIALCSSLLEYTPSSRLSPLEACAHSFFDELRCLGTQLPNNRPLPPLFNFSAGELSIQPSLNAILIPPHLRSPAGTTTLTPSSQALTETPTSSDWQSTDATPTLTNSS
Test: radiometric filter-binding kinase assay, Kinase HotSpot
Details: compound 0.5 µM; ATP 10 µM
Readout Kind: residual activity (%)
Answer with a number only, understood to be in %.

O=C(Nc1ccc(Cl)cc1)c1ccccc1NCc1ccncc1 :: 80.1
Clc1ccc(Nc2nnc(Cc3ccncc3)c3ccccc23)cc1 :: 103
CCN1/C(=C/C(C)=O)Sc2ccc(OC)cc21 :: 85.7
CS(=O)c1ccc(-c2nc(-c3ccc(F)cc3)c(-c3ccncc3)[nH]2)cc1 (configuration not stated) :: 94.1
CC(C)(C)c1nc2c3ccc(F)cc3c3c(=O)[nH]ccc3c2[nH]1 :: 121
NC(=O)c1ccc(N(C(N)=O)c2c(F)cccc2F)nc1-c1ccc(F)cc1F :: 98.6
Cc1cc2ncc(-c3ccccc3)nc2cc1C :: 104
C#Cc1cccc(Nc2ncnc3cc(OCCOC)c(OCCOC)cc23)c1 :: 99.3
CCCNC(=O)Nc1ccc(Oc2ncnc3cc(OC)c(OC)cc23)cc1Cl :: 98.8
CSc1nc(-c2ccc(F)cc2)c(-c2ccnc(NC(C)c3ccccc3)c2)[nH]1 (configuration not stated) :: 94.1

Request: Form entry - test system: UniProt P49840; read-out: residual activity; compound: CC(C)n1cnc2c(Nc3cccc(Cl)c3)nc(NCCO)nc21
Result: 103

Request: Now try COc1cc2nccc(Oc3ccc(NC(=S)NC(=O)c4ccccc4C)cc3)c2cc1OC .
Result: 91.4

###

Target: DDR2 (human) (UniProt Q16832)
Sequence (Q16832 whole entry, looked up): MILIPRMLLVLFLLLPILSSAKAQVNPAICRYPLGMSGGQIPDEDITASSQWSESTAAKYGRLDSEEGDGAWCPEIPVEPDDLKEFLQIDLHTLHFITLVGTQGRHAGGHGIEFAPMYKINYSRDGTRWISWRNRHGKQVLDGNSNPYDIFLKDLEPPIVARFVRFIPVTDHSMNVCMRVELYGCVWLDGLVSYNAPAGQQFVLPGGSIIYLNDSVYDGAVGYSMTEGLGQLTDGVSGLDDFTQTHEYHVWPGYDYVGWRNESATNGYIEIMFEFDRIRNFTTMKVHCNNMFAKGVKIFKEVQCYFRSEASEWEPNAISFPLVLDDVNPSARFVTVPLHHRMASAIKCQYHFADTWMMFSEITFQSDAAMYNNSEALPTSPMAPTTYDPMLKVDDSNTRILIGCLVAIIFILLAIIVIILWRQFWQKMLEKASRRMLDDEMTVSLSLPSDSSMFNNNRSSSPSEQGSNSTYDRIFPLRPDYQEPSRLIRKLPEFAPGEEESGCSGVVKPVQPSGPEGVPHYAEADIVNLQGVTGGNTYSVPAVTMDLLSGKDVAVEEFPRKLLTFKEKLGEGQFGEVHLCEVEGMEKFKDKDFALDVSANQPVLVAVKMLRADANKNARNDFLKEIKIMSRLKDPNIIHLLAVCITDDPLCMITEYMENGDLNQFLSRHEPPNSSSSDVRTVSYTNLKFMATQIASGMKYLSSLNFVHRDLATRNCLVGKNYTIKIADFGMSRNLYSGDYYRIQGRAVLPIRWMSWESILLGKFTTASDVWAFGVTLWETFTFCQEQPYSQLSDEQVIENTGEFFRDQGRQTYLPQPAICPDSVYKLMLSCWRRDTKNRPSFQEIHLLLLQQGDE
Test: radiometric filter-binding kinase assay, Kinase HotSpot
Details: compound 0.5 µM; ATP 10 µM
Readout Kind: residual activity (%)
Quick note: give the figure in %, leave out the unit.

Reference set, count: 5
CCN1/C(=C/C(C)=O)Sc2ccc(OC)cc21 :: 96.6
Nc1nc(Nc2ccc(S(N)(=O)=O)cc2)nn1C(=S)Nc1c(F)cccc1F :: 130
O=C1Nc2ccccc2/C1=C\c1c(Cl)[nH]c2ccccc12 :: 92.7
O=C(NC(NC(=S)Nc1ccc(F)c([N+](=O)[O-])c1)C(Cl)(Cl)Cl)C(c1ccccc1)c1ccccc1 (stereo not drawn) :: 96.4
NC(=O)c1ccc(N(C(N)=O)c2c(F)cccc2F)nc1-c1ccc(F)cc1F :: 100

Request: What value of measured residual activity is listed for CC(C)n1cnc2c(Nc3cccc(Cl)c3)nc(NCCO)nc21 ?
Result: 93.3

Request: Another compound: O=C1Cc2c([nH]c3ccc([N+](=O)[O-])cc23)-c2ccccc2N1
Result: 103

Request: Entry to check: O=c1cc(-c2cccc3c2Sc2ccccc2S3)oc(N2CCOCC2)c1
Result: 99.2
